Cited source: patent US11214803B2

tested on: Yap1 mRNA; test: Dose-dependent inhibition of human Yap1 in SNU-449 cells (Example 9, RTS36584); format: cell-based; conditions: free uptake, linear regression on a log/linear plot
Strand notation (5' to 3'): a small letter for the sugar, then the base; units joined by * are phosphorothioate-linked, units joined directly phosphodiester-linked; [ ] holds rarer units or linkages, { } end groups; capitals alone tell only the bases. e = 2'-O-(2-methoxyethyl) (MOE); k = constrained ethyl (cEt); [5mC] = 5-methylcytosine; d = 2'-deoxy (DNA); m = 2'-O-methyl
measured_property: pIC50
Numbers only, as −log10 of the molar value.

Consider the worked cases shown below.
* 1198354 (kA*kA*kG*dT*dG*dT*dA*dT*dG*dT*d[5mC]*dA*kG*eA*kA*eG) [compound 1198354] | 7.30
* 1198719 (kG*eG*kA*dA*dA*dT*dT*dG*dT*d[5mC]*dT*d[5mC]*eA*eT*kG*k[5mC]; antisense) [compound 1198719] | 7.00
* 1198203 (kG*kG*dA*dA*dA*dT*dT*dG*dT*d[5mC]*dT*e[5mC]*eA*eT*kG*k[5mC]) [compound 1198203] | 7.00
* 1198398 (G_{ks}^{m}C_{ds}A_{ds}C_{ds}T_{ds}T_{ds}T_{ds}T_{ds}A_{ds}^{m}C_{ds}A_{ds}T_{ks}T_{es}A_{ks}G_{es}G_{k}; cEt, 2'-MOE, 5-methylcytosine, phosphorothioate modifications, as printed in the source, key not given here) [compound 1198398] | 6.70

I have 4 substances here; please give me pIC50 for each one.
1. 1198267 (kA*kG*dT*dG*dT*dA*dT*dG*dT*d[5mC]*dA*eG*eA*eA*kG*kA; antisense) [compound 1198267]
2. 1198466 (kA*kG*dA*dG*dT*dA*dT*dG*dT*dG*dG*e[5mC]*kA*eA*kT*eA; antisense) [compound 1198466]
3. 958499 (ATTAGAGTATGTGGCA; 3-10-3 cEt gapmer, further chemistry not given here) [compound 958499]
4. 1198546 (kG*kA*kA*dA*dT*dT*dG*dT*d[5mC]*dT*d[5mC]*dA*kT*kG*k[5mC]*e[5mC]) [compound 1198546]

1: 7.00; 2: 7.00; 3: 6.70; 4: 7.00

I have 8 substances here; please give me pIC50 for each one.
1. 1200858 (kA*kA*kG*dT*dG*mU*dA*dT*dG*dT*d[5mC]*dA*dG*kA*kA*kG; antisense) [compound 1200858]
2. 1198494 (kG*kT*dG*d[5mC]*dT*dT*dT*dG*dG*dA*dA*eG*kA*eT*k[5mC]*eT; antisense) [compound 1198494]
3. 1197193 (AGGATGCATGGTTTTT; chemistry not fully specified) [compound 1197193]
4. 1198499 (kT*kT*dT*dA*dG*dG*dA*dT*dG*d[5mC]*dA*eT*kG*eG*kT*eT) [compound 1198499]
5. 1198412 (kT*dT*dA*dG*dG*dA*dT*dG*d[5mC]*dA*dT*kG*eG*kT*eT*kT; antisense) [compound 1198412]
6. 1074461 (kG*kA*kA*dA*dT*dT*dG*dT*d[5mC]*dT*d[5mC]*dA*dT*kG*k[5mC]*k[5mC]) [compound 1074461]
7. 1198529 (kT*kT*dA*dA*dA*dG*dT*dG*dT*dA*dT*eG*kT*e[5mC]*kA*eG; antisense) [compound 1198529]
8. 1074464 (kT*kT*kA*dG*dA*dG*dT*dA*dT*dG*dT*dG*dG*k[5mC]*kA*kA) [compound 1074464]

7.00
7.00
6.70
6.70
6.70
7.00
6.52
6.70
